Target: JAK2 (Homo sapiens (Human))
Sequence (O60674 849-1124): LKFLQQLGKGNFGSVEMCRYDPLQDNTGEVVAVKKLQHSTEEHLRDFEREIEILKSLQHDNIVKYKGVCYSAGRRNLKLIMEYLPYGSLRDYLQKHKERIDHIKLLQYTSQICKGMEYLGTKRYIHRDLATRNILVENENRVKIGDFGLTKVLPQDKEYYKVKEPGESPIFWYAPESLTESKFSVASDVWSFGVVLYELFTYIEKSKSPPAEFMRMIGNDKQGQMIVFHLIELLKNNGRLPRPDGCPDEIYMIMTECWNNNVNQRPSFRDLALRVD
Experiment: Jak biochemical HTRF assay, JAK2
Conditions: recombinant purified GST-tagged catalytic domain; HTRF format; [ATP] 8.5 μM
pIC50: −log10 of the molar value.
READOUT_NAME: pIC50

Some solved cases for reference:
COMPOUND | ASSAYED_SYSTEM | pIC50
COCCOC(=O)N1CC[C@@H](n2cc(C(N)=O)c(Nc3ccc(F)cc3)n2)[C@H](C#N)C1 (racemic) | JAK2 (Homo sapiens (Human)) | 6.69
N#C[C@@H]1CCOC[C@H]1n1cc(C(N)=O)c(Nc2ccc(C(F)F)nc2)n1 (single isomer, unassigned) | JAK2 (Homo sapiens (Human)) | 8.52

P. Cc1c(CN2CC[C@@H](C#N)[C@H](n3cc(C(N)=O)c(Nc4ccc(F)cc4)n3)C2)cnn1C (racemic)
Q. N#C[C@@H]1CCN(C(=O)OC(CF)CF)CC1n1cc(C(N)=O)c(Nc2ccc(F)cc2)n1 (mixture of isomers)
R. CCOC(=O)COC(=O)N1CC[C@@H](C#N)C(n2cc(C(N)=O)c(Nc3ccc(F)cc3)n2)C1 (mixture of isomers)
S. N#C[C@@H]1CCOC[C@H]1n1cc(C(N)=O)c(Nc2ccc(Cl)nc2)n1 (single isomer, unassigned)
T. CC1(c2ccc(Nc3nn([C@H]4COCC[C@@H]4C#N)cc3C(N)=O)cc2)COC1 (single isomer, unassigned)
Exercise: Arrange these 5 compounds in increasing order of pIC50. Put the labels in the order asked and list them.
Solution: R, Q, P, S, T

a. CC(OC(=O)N1CC[C@@H](C#N)C(n2cc(C(N)=O)c(Nc3ccc(F)cc3)n2)C1)C(F)(F)F (mixture of isomers)
b. N#C[C@@H]1CN(Cc2ccon2)CC[C@H]1n1cc(C(N)=O)c(Nc2ccc(F)cc2)n1 (racemic)
c. Cn1ccc(CN2CC[C@@H](C#N)[C@H](n3cc(C(N)=O)c(Nc4ccc(F)cc4)n3)C2)n1 (racemic)
d. CC1(COC(=O)N2CC[C@@H](n3cc(C(N)=O)c(Nc4ccc(F)cc4)n3)[C@H](C#N)C2)COC1 (racemic)
Exercise: Rank by pIC50 (largest to smallest). Return value: ordered labels per request.
Solution: c, b, a, d
(c: 7.85, b: 7.47, a: 6.87, d: 6.38)

P. N#C[C@H]1CCOC[C@@H]1n1cc(C(N)=O)c(Nc2ccc(Cl)nc2)n1 (single isomer, unassigned)
Q. N#C[C@@H]1CN(C(=O)OCc2ccccc2)CC[C@H]1n1cc(C(N)=O)c(Nc2ccc(F)cc2)n1 (racemic)
R. N#C[C@@H]1CCN(C(=O)OCCF)CC1n1cc(C(N)=O)c(Nc2ccc(F)cc2)n1 (mixture of isomers)
S. N#C[C@@H]1CCN(Cc2ccon2)C[C@H]1n1cc(C(N)=O)c(Nc2ccc(F)cc2)n1 (racemic)
Exercise: Write the entries in order, lowest recorded pIC50 first. Write the labels in rank order as requested.
Solution: Q, P, R, S

P. CN(C)CCOC(=O)N1CC[C@@H](C#N)C(n2cc(C(N)=O)c(Nc3ccc(F)cc3)n2)C1 (mixture of isomers)
Q. COCCOC(=O)N1CC[C@@H](C#N)C(n2cc(C(N)=O)c(Nc3ccc(F)cc3)n2)C1 (mixture of isomers)
R. N#C[C@H]1CS(=O)(=O)CC1n1cc(C(N)=O)c(Nc2ccc(F)cc2)n1 (mixture of isomers)
S. N#C[C@H]1CCOC[C@@H]1n1cc(C(N)=O)c(Nc2ccc(OCC(F)(F)F)nc2)n1 (single isomer, unassigned)
T. CN(C)C(=O)c1ccc(Nc2nn([C@H]3COCC[C@@H]3C#N)cc2C(N)=O)cc1 (single isomer, unassigned)
Exercise: Sort by pIC50, descending. Output spec: labels arranged per the requested ranking.
Solution: T, S, R, Q, P

1. N#C[C@H]1CCOC[C@@H]1n1cc(C(N)=O)c(Nc2cncc(F)c2)n1 (single isomer, unassigned)
2. CC(C)(C#N)COC(=O)N1CC[C@@H](C#N)C(n2cc(C(N)=O)c(Nc3ccc(F)cc3)n2)C1 (mixture of isomers)
Exercise: Which shows the larger pIC50 value: 1 or 2 ? Please identify the chosen entry by its label.
Solution: 2

# credit: patent US9394282B2
